Where a name gives a salt, the structure may show the parent alone.
Exercise: state measured IC50 for each of the compounds provided.
Mention the unit after the number when you answer.

Record Cn1ncc(Cl)c1-c1cc(NC(=O)c2cc(Br)cs2)ccc1OCCN [Compound 77, trifluoroacetate] / human 5-HT2A receptor (Homo sapiens (Human)), IC50 recorded as 1.2 nM

Field IC50 (system: human 5-HT2A receptor (Homo sapiens (Human))) for entry Cn1ncc(Cl)c1-c1cc(NC(=O)c2ccc(F)c(C(F)(F)F)c2)ccc1OCCN [Compound 197, trifluoroacetate] = 1 nM

human 5-HT2A receptor (Homo sapiens (Human)) assay, compound Cn1ncc(Cl)c1-c1cc(NC(=O)C2CCC(C(F)(F)F)CC2)ccc1OCCN (stereo not drawn) [Compound 303, trifluoroacetate] , recorded IC50 = 0.26 nM
